system: dog hepatocytes; test: Metabolite identification in dog hepatocyte incubations; assay type: in vitro ADME; settings: Cmpd 28 incubated for 120 min, 4 μM
property: % of the total MS area, Dog Hepatocytes (Mixed gender) (%)

                                   compound  units_of_measure  numeric_value
0  Cc1cc(-c2ccc(C(=O)C3CCCCC3C(=O)OC3OC(C(=O)O)C(O)C(O)C3O)cc2)n[nH]1 (stereo not shown)                 %              4
1  Cc1nn(C)cc1NC(=O)[C@@H]1CCCC[C@H]1C(=O)c1ccc(-c2cc(CO)[nH]n2)cc1                 %              2
2  Cc1cc(-c2ccc(C(=O)[C@@H]3CCCC[C@H]3C(=O)O)cc2)n[nH]1                 %              4

---

% of the total MS area, Rat Plasma (Female) values, listed per item
Assay: MetID on in vivo rat plasma samples
Parameters: species or system rat (Han Wistar)
Details: after Cmpd 28; sampled at 4 h
Protocol: The workup procedure could vary somewhat depending on the compound and dose, but the general procedure was as follows: Two volumes of ACN/methanol (1:1, v:v) were added to the plasma samples and vortex-mixed to precipitate the proteins. Thereafter, the samples were centrifuged for 10 min (at 10,000 g and 4 °C), and the supernatants were diluted with one volume of water. […]
property: % of the total MS area, Rat Plasma (Female) (%)

>>> df
                                   compound  numeric_value
0  Cc1cc(-c2ccc(C(=O)C3CCCCC3C(=O)OC3OC(C(=O)O)C(O)C(O)C3O)cc2)n[nH]1 (stereo not drawn)              1
1  Cc1cc(-c2ccc(C(=O)[C@@H]3CCCC[C@H]3C(=O)O)cc2)n[nH]1             18

---

assay: MetID on in vivo dog samples (plasma, urine); parameters: species or system dog (beagles); conditions: after Cmpd 28; sampled at 3 h and 30 min
% of the total MS area, Dog Plasma (Female) values, listed per item
property: % of the total MS area, Dog Plasma (Female) (%)

In [3]: df
Out[3]:
                                   compound  numeric_value
0  Cc1cc(-c2ccc(C(=O)C3CCCCC3C(=O)OC3OC(C(=O)O)C(O)C(O)C3O)cc2)n[nH]1 (stereo not drawn) [Cmpd 28 M2]             40
1  Cc1cc(-c2ccc(C(=O)[C@@H]3CCCC[C@H]3C(=O)Nc3cn(C)nc3C)cc2)n[nH]1 [Cmpd 28]             34
2  Cc1cc(-c2ccc(C(=O)[C@@H]3CCCC[C@H]3C(=O)Nc3c[nH]nc3C)cc2)n[nH]1 [Cmpd 28 M11]            0.5
3  Cc1nn(C)cc1NC(=O)[C@@H]1CCCC[C@H]1C(=O)c1ccc(-c2cc(CO)[nH]n2)cc1 [Cmpd 28 M4]              1
4  Cc1cc(-c2ccc(C(=O)[C@@H]3CCCC[C@H]3C(=O)O)cc2)n[nH]1 [Cmpd 28 M1]             12
5  Cc1nn(C)cc1NC(=O)[C@@H]1CCCC[C@H]1C(=O)c1ccc(-c2cc(C(=O)O)[nH]n2)cc1 [Cmpd 28 M7]              5

---

% of the total MS area, Rat Plasma (Female) values, listed per item
test: MetID on in vivo rat plasma samples; set-up: species or system rat (Han Wistar); conditions: after Cmpd 28; sampled at 4 h
property: % of the total MS area, Rat Plasma (Female) (%)

>>> df
                                   compound  value_comparator  numeric_value
0          CC(=O)Nc1cn(C)nc1C [Cmpd 28 M12]                 =              1
1  Cc1cc(-c2ccc(C(=O)[C@@H]3CCCC[C@H]3C(N)=O)cc2)n[nH]1 [Cmpd 28 M8]                 =              1
2  Cc1cc(-c2ccc(C(=O)[C@@H]3CCCC[C@H]3C(=O)Nc3c[nH]nc3C)cc2)n[nH]1 [Cmpd 28 M11]                 <              1

---

assay: Thermodynamic solubility, shake-flask; conditions: 10 mM sodium phosphate buffer, 25 °C, pH 7.4, aqueous buffer, thermodynamic from solid
solubility at 24 h values, listed per item
property: solubility at 24 h (µM)

In [3]: df
Out[3]:
                                   molecule            property  numeric_value
0  Cn1cc(NC(=O)C2CCCCC2C(=O)c2ccc(-c3cc[nH]n3)cc2)c(C(F)F)n1 (stereo not drawn) [Cmpd 27]  solubility at 24 h             99
1  Cn1ncc(NC(=O)C2CCCCC2C(=O)c2ccc(-c3cc[nH]n3)cc2)c1C(N)=O (stereo not drawn) [Cmpd 18]  solubility at 24 h            564
2  COc1ccc(-c2nnc(C(=O)N3CC(Oc4ccc(CN5CC(C)(O)C5)c(C)c4)C3)o2)cc1 [Cmpd 81]  solubility at 24 h             71

---

assay: MetID on in vivo rat plasma samples; parameters: species or system rat (Han Wistar); details: after Cmpd 28; sampled at 4 h
property: % of the total MS area, Rat Plasma (Male)

In [3]: df
Out[3]:
                                   compound    result
0  O=C(O)[C@@H]1CCCC[C@H]1C(=O)c1ccc(-c2cc(CO)[nH]n2)cc1 [Cmpd 28 M10]        1%
1  Cc1nn(C)cc1NC(=O)[C@@H]1CCCC[C@H]1C(=O)c1ccc(-c2cc(C(=O)O)[nH]n2)cc1 [Cmpd 28 M7]  not seen
2  Cc1cc(-c2ccc(C(=O)[C@@H]3CCCC[C@H]3C(=O)O)cc2)n[nH]1 [Cmpd 28 M1]       17%
3  Cc1cc(-c2ccc(C(=O)[C@@H]3CCCC[C@H]3C(=O)Nc3c[nH]nc3C)cc2)n[nH]1 [Cmpd 28 M11]        1%
4  Cc1cc(-c2ccc(C(=O)C3CCCCC3C(=O)OC3OC(C(=O)O)C(O)C(O)C3O)cc2)n[nH]1 (centres unmarked) [Cmpd 28 M2]      0.5%
5  Cc1cc(-c2ccc(C(=O)[C@@H]3CCCC[C@H]3C(N)=O)cc2)n[nH]1 [Cmpd 28 M8]        3%
6          CC(=O)Nc1cn(C)nc1C [Cmpd 28 M12]        1%
7  Cc1nn(C)cc1NC(=O)[C@@H]1CCCC[C@H]1C(=O)c1ccc(-c2cc(CO)[nH]n2)cc1 [Cmpd 28 M4]  not seen

---

test: MetID on in vivo dog samples (plasma, urine); parameters: species or system dog (beagles); conditions: dog urine, sampled at 7–24 h
Parent, % of the total MS area values, listed per item
property: Parent, % of the total MS area (%)

In [3]: df
Out[3]:
                                   compound                        property  numeric_value
0  CCCC(CN1CC(O)C1)N(C)C(=O)c1ccc(Cl)cc1 (stereo not shown)  Parent, % of the total MS area             22
1  CN(C(=O)c1ccc(Cl)cc1)C(CN1CC(O)C1)C1CC1 (stereo not shown)  Parent, % of the total MS area              5
2  CN(C(=O)c1ccc(C#N)cc1)C(CN1CC(O)C1)c1ccccc1 (stereo not shown)  Parent, % of the total MS area             61
3  CC(C)C(CN1CC(O)C1)N(C)C(=O)c1ccc(Cl)cc1 (stereo not shown)  Parent, % of the total MS area             10

---

test: LogD, shake-flask method (octanol / buffer pH 7.4); conditions: octanol/10 mM sodium phosphate buffer
logD at 2 h values, listed per item
property: logD at 2 h

>>> df
                                   compound     property  numeric_value
0  Cn1cc(NC(=O)C2CCCCC2C(=O)c2ccc(-c3cc[nH]n3)cc2)c(C(F)F)n1 (centres unmarked) [Cmpd 27]  logD at 2 h              3
1  Cn1ncc(NC(=O)C2CCCCC2C(=O)c2ccc(-c3cc[nH]n3)cc2)c1C(N)=O (centres unmarked) [Cmpd 18]  logD at 2 h              2

---

Parent, % of the total MS area values, listed per item
system: dog hepatocytes; test: Metabolite identification in dog hepatocyte incubations; format: in vitro ADME; details: dog hepatocytes, incubated for 120 min
property: Parent, % of the total MS area

In [3]: df
Out[3]:
                                   compound        tested_on  result
0  CN(C(=O)c1ccc(Cl)cc1)C(CN1CC(O)C1)C1CC1 (stereo not shown) [Cmpd 47]  dog hepatocytes     83%
1  CN(C(=O)c1ccc(C#N)cc1)C(CN1CC(O)C1)c1ccccc1 (stereo not shown) [Cmpd 55]  dog hepatocytes     97%
2  CC(C)C(CN1CC(O)C1)N(C)C(=O)c1ccc(Cl)cc1 (stereo not shown) [Cmpd 50]  dog hepatocytes     73%
3  CCCC(CN1CC(O)C1)N(C)C(=O)c1ccc(Cl)cc1 (stereo not shown) [Cmpd 51]  dog hepatocytes     80%
